tested on: NCI-H727; test: relative viability (nuclei count vs DMSO), 5 days (fraction); higher = more cells survive; conditions: first compound 1.265 µM
quantity name: relative viability
# output: bare number, no unit

[
  {
    "compound": "Clc1ccc(Nc2nnc(Cc3ccncc3)c3ccccc23)cc1 [Vatalanib] + C[C@@H](Oc1cc(-c2cnn(C3CCNCC3)c2)cnc1N)c1c(Cl)ccc(F)c1Cl [Crizotinib] (partner 1 µM)",
    "quantity name": "relative viability",
    "result number": 0.693
  }
]

Now consider a different compound.
What value of relative viability has been reported for the following compound? COc1cc(N2CCC(C(N)=O)CC2)ccc1Nc1nc(N)c(Cl)c(Nc2ccccc2S(=O)(=O)C(C)C)n1 [HG-5-88-01] + Cc1cc(Nc2cc(N3CCN(C)CC3)nc(Sc3ccc(NC(=O)C4CC4)cc3)n2)n[nH]1 [Tozasertib] (partner 0.1 µM) 0.429

---

system: NCI-H647; assay: relative viability (nuclei count vs DMSO), 5 days (fraction); higher = more cells survive; conditions: first compound 0.04 µM
Below, each entry is listed with its recorded relative viability.
# output: bare number, no unit

[
  {
    "compound": "C[C@@H]1CN(CC(=O)Nc2ccc3c(c2)Cc2cccc(-c4cc(=O)cc(N5CCOCC5)o4)c2S3)C[C@H](C)O1 + CC(=O)c1c(C)c2cnc(Nc3ccc(N4CCNCC4)cn3)nc2n(C2CCCC2)c1=O [Palbociclib] (partner 0.5 µM)",
    "relative viability": 0.376
  }
]

Now consider a different compound.
Missing value: relative viability, NCI-H647, entry COc1cc(N2CCC(C(N)=O)CC2)ccc1Nc1nc(N)c(Cl)c(Nc2ccccc2S(=O)(=O)C(C)C)n1 [HG-5-88-01] + CS(=O)(=O)CCNCc1ccc(-c2ccc3ncnc(Nc4ccc(OCc5cccc(F)c5)c(Cl)c4)c3c2)o1 [Lapatinib] (partner 2 µM) . Fill in? 0.929

---

tested on: NCI-H2126; assay: relative viability (nuclei count vs DMSO), 5 days (fraction); higher = more cells survive; conditions: first compound 0.03162 µM
Labelling: relative viability reported below 1 becomes Fulfilled; at or above becomes Not fulfilled.

Examples with answers:
[
  {
    "compound": "CC(C)Oc1cc(Nc2nc(N[C@@H](C)c3ccc(F)cn3)ncc2Cl)n[nH]1 [AZ23] + C[C@@H](Oc1cc(-c2cnn(C3CCNCC3)c2)cnc1N)c1c(Cl)ccc(F)c1Cl [Crizotinib] (partner 1 µM)",
    "label": "Not fulfilled"
  },
  {
    "compound": "CC(C)Oc1cc(Nc2nc(N[C@@H](C)c3ccc(F)cn3)ncc2Cl)n[nH]1 [AZ23] + CS(=O)(=O)N1CCN(Cc2cc3nc(-c4cccc5[nH]ncc45)nc(N4CCOCC4)c3s2)CC1 [Pictilisib] (partner 1 µM)",
    "label": "Fulfilled"
  },
  {
    "compound": "CC(C)Oc1cc(Nc2nc(N[C@@H](C)c3ccc(F)cn3)ncc2Cl)n[nH]1 [AZ23] + CC(=O)c1c(C)c2cnc(Nc3ccc(N4CCNCC4)cn3)nc2n(C2CCCC2)c1=O [Palbociclib] (partner 0.5 µM)",
    "label": "Fulfilled"
  },
  {
    "compound": "CC(C)Oc1cc(Nc2nc(N[C@@H](C)c3ccc(F)cn3)ncc2Cl)n[nH]1 [AZ23] + NC(=O)Nc1cc(-c2cccc(F)c2)sc1C(=O)N[C@H]1CCCNC1 [AZD7762] (partner 0.2 µM)",
    "label": "Not fulfilled"
  },
  {
    "compound": "CC(C)Oc1cc(Nc2nc(N[C@@H](C)c3ccc(F)cn3)ncc2Cl)n[nH]1 [AZ23] + CS(=O)(=O)CCNCc1ccc(-c2ccc3ncnc(Nc4ccc(OCc5cccc(F)c5)c(Cl)c4)c3c2)o1 [Lapatinib] (partner 2 µM)",
    "label": "Fulfilled"
  }
]

Attention now shifts to the item below.
Quick check: does CC(C)Oc1cc(Nc2nc(N[C@@H](C)c3ccc(F)cn3)ncc2Cl)n[nH]1 [AZ23] + CC1(C)CCC(c2ccc(Cl)cc2)=C(CN2CCN(c3ccc(C(=O)NS(=O)(=O)c4ccc(N[C@H](CCN5CCOCC5)CSc5ccccc5)c(S(=O)(=O)C(F)(F)F)c4)cc3)CC2)C1 [Navitoclax] (partner 0.5 µM) have relative viability under 1? Fulfilled

---

tested on: NCI-H647; experiment: relative viability (nuclei count vs DMSO), 5 days (fraction); higher = more cells survive; conditions: first compound 4 µM
Below, each entry is listed with its recorded relative viability.
# output: bare number, no unit

[
  {
    "compound": "COc1cc(N2CCC(C(N)=O)CC2)ccc1Nc1nc(N)c(Cl)c(Nc2ccccc2S(=O)(=O)C(C)C)n1 [HG-5-88-01] + C[C@@H](Oc1cc(-c2cnn(C3CCNCC3)c2)cnc1N)c1c(Cl)ccc(F)c1Cl [Crizotinib] (partner 1 µM)",
    "result number": 0.393
  }
]

What value of relative viability has been reported for the following compound? C[C@@H]1CN(CC(=O)Nc2ccc3c(c2)Cc2cccc(-c4cc(=O)cc(N5CCOCC5)o4)c2S3)C[C@H](C)O1 + CC(C)C[C@H](NC(=O)[C@H](Cc1ccccc1)NC(=O)c1cnccn1)B(O)O [Bortezomib] (partner 0.002 µM) 0.484

What value of relative viability has been reported for the following compound? Clc1ccc(Nc2nnc(Cc3ccncc3)c3ccccc23)cc1 [Vatalanib] + C[C@@H](Oc1cc(-c2cnn(C3CCNCC3)c2)cnc1N)c1c(Cl)ccc(F)c1Cl [Crizotinib] (partner 1 µM) 0.918

What value of relative viability has been reported for the following compound? C[C@@H]1CN(CC(=O)Nc2ccc3c(c2)Cc2cccc(-c4cc(=O)cc(N5CCOCC5)o4)c2S3)C[C@H](C)O1 + O=C(CCCCCCC(=O)Nc1ccccc1)NO [Vorinostat] (partner 1 µM) 0.416

---

tested on: ChaGo-K-1; experiment: relative viability (nuclei count vs DMSO), 5 days (fraction); higher = more cells survive; conditions: first compound 1.265 µM
quantity name: relative viability
# output: bare number, no unit

[
  {
    "compound": "Clc1ccc(Nc2nnc(Cc3ccncc3)c3ccccc23)cc1 [Vatalanib] + Cc1nc(Nc2ncc(C(=O)Nc3c(C)cccc3Cl)s2)cc(N2CCN(CCO)CC2)n1 [Dasatinib] (partner 0.075 µM)",
    "target of assay": "ChaGo-K-1",
    "relative viability": 0.569
  },
  {
    "compound": "Clc1ccc(Nc2nnc(Cc3ccncc3)c3ccccc23)cc1 [Vatalanib] + Nc1ncn([C@H]2C[C@H](O)[C@@H](CO)O2)c(=O)n1 [Decitabine] (partner 2 µM)",
    "target of assay": "ChaGo-K-1",
    "relative viability": 0.522
  }
]

Now consider a different compound.
What value of relative viability has been reported for the following compound? Clc1ccc(Nc2nnc(Cc3ccncc3)c3ccccc23)cc1 [Vatalanib] + CC(=O)Nc1cccc(-n2c(=O)n(C3CC3)c(=O)c3c(Nc4ccc(I)cc4F)n(C)c(=O)c(C)c32)c1 [Trametinib] (partner 0.02 µM) 0.877

---

test system: NCI-H650; assay: relative viability (nuclei count vs DMSO), 5 days (fraction); higher = more cells survive; conditions: first compound 0.03162 µM
quantity name: relative viability
# output: bare number, no unit

Would you please look over these solved cases?
[
  {
    "molecule": "CC(C)Oc1cc(Nc2nc(N[C@@H](C)c3ccc(F)cn3)ncc2Cl)n[nH]1 [AZ23] + C[C@]1(O)C[C@@H](c2nc(-c3ccc4ccc(-c5ccccc5)nc4c3)c3c(N)nccn32)C1 [Linsitinib] (partner 1 µM)",
    "relative viability": 0.893
  },
  {
    "molecule": "CC(C)Oc1cc(Nc2nc(N[C@@H](C)c3ccc(F)cn3)ncc2Cl)n[nH]1 [AZ23] + NC(=O)Nc1cc(-c2cccc(F)c2)sc1C(=O)N[C@H]1CCCNC1 [AZD7762] (partner 0.2 µM)",
    "relative viability": 1.14
  }
]

What value of relative viability has been reported for the following molecule? CC(C)Oc1cc(Nc2nc(N[C@@H](C)c3ccc(F)cn3)ncc2Cl)n[nH]1 [AZ23] + CS(=O)(=O)CCNCc1ccc(-c2ccc3ncnc(Nc4ccc(OCc5cccc(F)c5)c(Cl)c4)c3c2)o1 [Lapatinib] (partner 2 µM) 1.19

---

tested on: HCC-78; assay: relative viability (nuclei count vs DMSO), 5 days (fraction); higher = more cells survive; conditions: first compound 0.8 µM
quantity name: relative viability
# output: bare number, no unit

Would you please look over these solved cases?
[
  {
    "molecule": "CCCCCCCCCCCC1=C(O)C(=O)C=C(O)C1=O [Embelin] + O=C(CCCCCCC(=O)Nc1ccccc1)NO [Vorinostat] (partner 1 µM)",
    "target of assay": "HCC-78",
    "relative viability": 0.547
  },
  {
    "molecule": "CCCCCCCCCCCC1=C(O)C(=O)C=C(O)C1=O [Embelin] + Cc1nc(Nc2ncc(C(=O)Nc3c(C)cccc3Cl)s2)cc(N2CCN(CCO)CC2)n1 [Dasatinib] (partner 0.075 µM)",
    "target of assay": "HCC-78",
    "relative viability": 0.44
  },
  {
    "molecule": "CCCCCCCCCCCC1=C(O)C(=O)C=C(O)C1=O [Embelin] + Cc1cc(Nc2cc(N3CCN(C)CC3)nc(Sc3ccc(NC(=O)C4CC4)cc3)n2)n[nH]1 [Tozasertib] (partner 0.1 µM)",
    "target of assay": "HCC-78",
    "relative viability": 0.511
  }
]

What value of relative viability has been reported for the following molecule? CCCCCCCCCCCC1=C(O)C(=O)C=C(O)C1=O [Embelin] + O=C(c1cc(Cc2n[nH]c(=O)c3ccccc23)ccc1F)N1CCN(C(=O)C2CC2)CC1 [Olaparib] (partner 8 µM) 0.78

What value of relative viability has been reported for the following molecule? CCCCCCCCCCCC1=C(O)C(=O)C=C(O)C1=O [Embelin] + CS(=O)(=O)N1CCN(Cc2cc3nc(-c4cccc5[nH]ncc45)nc(N4CCOCC4)c3s2)CC1 [Pictilisib] (partner 1 µM) 0.216

What value of relative viability has been reported for the following molecule? CCCCCCCCCCCC1=C(O)C(=O)C=C(O)C1=O [Embelin] + C[C@@H](Oc1cc(-c2cnn(C3CCNCC3)c2)cnc1N)c1c(Cl)ccc(F)c1Cl [Crizotinib] (partner 1 µM) 0.373
